- assay.name: Phase 1 study in subjects with hepatic impairment: pharmacokinetics and protein binding
- Type: in vivo, humans
- recorded.conditions: human, plasma, Day 5; healthy control subjects; read-out: Cmax (Reference Group)
parameter.measured: Cmax (ng/mL)
The reply should be a number in ng/mL, with the unit left off.

// lookup Cmax for CC[C@H]1OC(=O)[C@@](C)(F)C(=O)[C@H](C)[C@@H](O[C@@H]2O[C@H](C)C[C@H](N(C)C)[C@H]2O)[C@](C)(OC)C[C@@H](C)C(=O)[C@H](C)[C@H]2N(CCCCn3cc(-c4cccc(N)c4)nn3)C(=O)O[C@]12C
649

* * *

- assay.name: Phase 1 study in subjects with hepatic impairment: pharmacokinetics and protein binding
- Assay type: in vivo, humans
- recorded.conditions: human, plasma, moderate hepatic impairment
parameter.measured: half-life (h)
The reply should be a number in h, with the unit left off.

// lookup half-life for CC[C@H]1OC(=O)[C@@](C)(F)C(=O)[C@H](C)[C@@H](O[C@@H]2O[C@H](C)C[C@H](N(C)C)[C@H]2O)[C@](C)(OC)C[C@@H](C)C(=O)[C@H](C)[C@H]2N(CCCCn3cc(-c4cccc(N)c4)nn3)C(=O)O[C@]12C
10.4

Values were extracted from patent US20170165286A1.
